Molecular target: Monoglyceride lipase (Rattus norvegicus)
Sequence (whole entry): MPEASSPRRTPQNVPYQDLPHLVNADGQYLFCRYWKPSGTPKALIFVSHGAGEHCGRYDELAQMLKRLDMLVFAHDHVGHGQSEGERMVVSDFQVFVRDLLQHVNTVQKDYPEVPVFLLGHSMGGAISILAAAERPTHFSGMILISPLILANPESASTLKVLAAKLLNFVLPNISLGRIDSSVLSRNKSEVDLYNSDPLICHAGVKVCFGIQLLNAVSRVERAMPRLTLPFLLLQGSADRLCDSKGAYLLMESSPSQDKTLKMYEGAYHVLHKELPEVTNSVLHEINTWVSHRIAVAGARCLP
Experiment: Inhibition of MGL in rat cerebellum membrane fractions assessed as [3H]2-oleoylglycerol hydrolysis
Assay type: cell membranes
Consider the following compounds and their measured Log I50 readings.

# compound, assay-endpoint, value-reported
measured = [
    ("CCCCC/C=C\\C/C=C\\CCCCCCCC(=O)OCC1CCCCO1 (racemic)", "Log I50", "< 4"),
    ("CCCCC/C=C\\C/C=C\\C/C=C\\C/C=C\\CCCC(=O)OCC1CCCO1 (stereo not given)", "Log I50", 4.1),
    ("CCCCC/C=C\\C/C=C\\C/C=C\\C/C=C\\CCCC(=O)OC[C@@H]1COC(C)(C)O1", "Log I50", "< 4"),
    ("O=C(OCC1CCCCO1)c1ccc(-c2ccccc2)cc1 (racemic)", "Log I50", 4.1),
    ("O=C(OCC1CO1)c1ccccc1 (racemic)", "Log I50", "< 4"),
]

Look at this compound and give its reported Log I50. CCCCCC/C=C\CCCCCCCC(=O)OCC1CO1 (racemic)
4.55

Look at this compound and give its reported Log I50. CCCCCCCC/C=C\CCCCCCCC(=O)OCC1CCCCO1 (racemic)
< 4

Look at this compound and give its reported Log I50. CCCCC/C=C\C/C=C\C/C=C\C/C=C\CCCC(=O)NC[C@@H]1CCCO1
4.1

Look at this compound and give its reported Log I50. CCCCC/C=C\C/C=C\C/C=C\C/C=C\CCCC(=O)OCC1CCCCO1 (racemic)
4.58

Look at this compound and give its reported Log I50. CCCCC/C=C\C/C=C\C/C=C\C/C=C\CCCC(=O)OCC1CCOC1 (stereo not given)
< 4

Look at this compound and give its reported Log I50. CC/C=C\C/C=C\C/C=C\CCCCCCCC(=O)OCC1CCCCO1 (racemic)
< 4

----------
molecular target: Monoglyceride lipase (Rattus norvegicus); assay: Inhibition of MGL in rat cerebellum cytosolic fractions assessed as [3H]2-oleoylglycerol hydrolysis; format: tissue-based
assay-endpoint: pI50 (-log I50, M)
Please respond with just the number, no unit label.

# molecule, pI50 (-log I50, M)
rows = [
    ("CCCCC/C=C\\C/C=C\\C/C=C\\C/C=C\\CCCC(=O)NC[C@@H]1CCCO1", 5.5),
]

Look at this molecule and give its reported pI50 (-log I50, M). CCCCC/C=C\C/C=C\C/C=C\C/C=C\CCCC(=O)NC[C@H]1CCCO1
4.59

Look at this molecule and give its reported pI50 (-log I50, M). CCCCC/C=C\C/C=C\C/C=C\C/C=C\CCCC(=O)OC1CCOCC1
4.5

----------
target: Monoglyceride lipase (Rattus norvegicus) (UniProt Q8R431); assay: Inhibition of MGL in rat cerebellum membrane fractions assessed as [3H]2-oleoylglycerol hydrolysis at 100 uM; format: cell membranes
Decide by inhibition: equal to or exceeding 20% means criterion met, less means criterion not met.

# count of solved cases: 6
# compound, class-label
records = [
    ("O=C(OCC1CCCCO1)c1ccccc1-c1ccccc1 (racemic)", "criterion met"),
    ("CCCCC/C=C\\C/C=C\\C/C=C\\C/C=C\\CCCC(=O)OCC1CCOC1 (stereo not given)", "criterion met"),
    ("O=C(OCC1CO1)c1ccccc1 (racemic)", "criterion not met"),
    ("CCCCC/C=C\\C/C=C\\C/C=C\\C/C=C\\CCCC(=O)OCc1ccc2c(c1)OCO2", "criterion not met"),
    ("O=C(OCC1CCCCO1)c1cccc(-c2ccccc2)c1 (racemic)", "criterion met"),
    ("CCCCC/C=C\\C/C=C\\C/C=C\\C/C=C\\CCCC(=O)OC[C@@H]1COC(C)(C)O1", "criterion met"),
]

Hello, I need to know if CCCCC/C=C\C/C=C\CCCCCCCC(=O)OCC1CCCCO1 (racemic) has measured inhibition not below 20%. Thanks!
criterion met

Hello, I need to know if CCCCCCCC/C=C\CCCCCCCC(=O)OCC1CCCCO1 (racemic) has measured inhibition not below 20%. Thanks!
criterion met

Hello, I need to know if CCCCCC/C=C\CCCCCCCC(=O)OCC1CCCCO1 (racemic) has measured inhibition not below 20%. Thanks!
criterion met

Hello, I need to know if CCCCC/C=C\C/C=C\C/C=C\C/C=C\CCCC(=O)OC[C@H]1COC(C)(C)O1 has measured inhibition not below 20%. Thanks!
criterion met

Hello, I need to know if CCCCC/C=C\C/C=C\CCCCCCCC(=O)OCC1CO1 (racemic) has measured inhibition not below 20%. Thanks!
criterion not met

Hello, I need to know if CCCCC/C=C\C/C=C\C/C=C\C/C=C\CCCC(=O)NCC1CCCO1 (stereo not given) has measured inhibition not below 20%. Thanks!
criterion met

Hello, I need to know if O=C(OCC1CO1)c1cccc(-c2ccccc2)c1 (racemic) has measured inhibition not below 20%. Thanks!
criterion not met

Hello, I need to know if CCCCC/C=C\C/C=C\C/C=C\C/C=C\CCCC(=O)OC1CCOCC1 has measured inhibition not below 20%. Thanks!
criterion met
